Reported relative KD to chimeric parental antibody expt 1 values for a set of binders
Molecular target: T1, CEACAM1-HIS (Sino Biologics Inc.) (Homo sapiens (Human), UniProt P13688 35-428)
T1 construct: bought; not shown: His tag
T1 sequence: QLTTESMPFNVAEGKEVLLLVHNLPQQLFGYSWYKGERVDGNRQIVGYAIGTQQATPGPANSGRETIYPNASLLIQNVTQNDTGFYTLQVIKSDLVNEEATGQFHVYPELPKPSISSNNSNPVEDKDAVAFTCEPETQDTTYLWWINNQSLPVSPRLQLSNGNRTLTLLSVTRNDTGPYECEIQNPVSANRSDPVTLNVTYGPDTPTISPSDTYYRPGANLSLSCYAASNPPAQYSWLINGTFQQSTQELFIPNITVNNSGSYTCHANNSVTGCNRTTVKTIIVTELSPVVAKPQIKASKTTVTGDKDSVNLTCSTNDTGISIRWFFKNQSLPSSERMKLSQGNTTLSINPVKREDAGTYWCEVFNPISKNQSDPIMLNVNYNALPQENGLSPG
Assay: SPR multi-cycle
property name: relative KD to chimeric parental antibody expt 1 (ratio)

| binder | measured number |
| --- | --- |
| VH1/Vκ1 (antibody, V domains shown) VH: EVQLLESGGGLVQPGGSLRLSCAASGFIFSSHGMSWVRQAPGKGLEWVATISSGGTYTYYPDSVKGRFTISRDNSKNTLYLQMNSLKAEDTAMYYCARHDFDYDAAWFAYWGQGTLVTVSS VL: QIVLTQSPALLSLSPGERATMSCSANSSVSYMYWYRQKPGQAPKPWIYLTSNLASGVPARFSGSGSGTDYTLTISSLEAEDFATYYCQQWSSNPPTFGQGTKLEIK | 1.5 |
| VH2/Vκ1 (antibody, V domains shown) VH: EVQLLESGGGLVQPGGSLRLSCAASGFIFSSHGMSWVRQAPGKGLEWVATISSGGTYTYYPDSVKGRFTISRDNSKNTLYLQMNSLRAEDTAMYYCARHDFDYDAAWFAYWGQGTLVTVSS VL: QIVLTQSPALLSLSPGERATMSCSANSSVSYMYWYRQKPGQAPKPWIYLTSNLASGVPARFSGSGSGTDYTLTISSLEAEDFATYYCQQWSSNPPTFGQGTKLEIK | 1.39 |
| VH2/Vκ2 (antibody, V domains shown) VH: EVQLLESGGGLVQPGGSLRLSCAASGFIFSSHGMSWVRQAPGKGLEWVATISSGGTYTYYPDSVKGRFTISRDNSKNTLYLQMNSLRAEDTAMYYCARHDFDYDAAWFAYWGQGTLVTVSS VL: EIVLTQSPATLSLSPGERATLSCRANSSVSYMYWYQQKPGQAPRPWIYLTSNRATGVPARFSGSGSGTDYTLTISSLEPEDFATYYCQQWSSNPPTFGQGTKLEIK | 1.29 |

# credit: patent US20250388666A1
